Molecular target: Human immunodeficiency virus type 1 integrase (Human immunodeficiency virus 1)
Assay: Inhibition of recombinant HIV1 integrase strand transfer activity by gel-based assay in presence of magnesium
Here, each record is paired with measured IC50 data.
Entry rule: numbers only, all in nM.

CCOC(=O)/C(O)=C/C(=O)c1cn(Cc2ccc(F)cc2)c2c(F)cccc2c1=O ... 5200

Let me check: O=C(O)/C(O)=C/C(=O)c1cn(Cc2ccc(F)cc2)c2cc(Cl)ccc2c1=O , system Human immunodeficiency virus type 1 integrase (Human immunodeficiency virus 1), measured IC50 is 110

Let me check: CCOC(=O)/C(O)=C/C(=O)c1cn(Cc2ccc(F)cc2)c2cc(N3CCCC3)ccc2c1=O , system Human immunodeficiency virus type 1 integrase (Human immunodeficiency virus 1), measured IC50 is 2700

====

Here, each record is paired with measured IC50 data.
Target: Human immunodeficiency virus type 1 integrase (Human immunodeficiency virus 1, UniProt Q7ZJM1)
Sequence (Q7ZJM1 whole entry): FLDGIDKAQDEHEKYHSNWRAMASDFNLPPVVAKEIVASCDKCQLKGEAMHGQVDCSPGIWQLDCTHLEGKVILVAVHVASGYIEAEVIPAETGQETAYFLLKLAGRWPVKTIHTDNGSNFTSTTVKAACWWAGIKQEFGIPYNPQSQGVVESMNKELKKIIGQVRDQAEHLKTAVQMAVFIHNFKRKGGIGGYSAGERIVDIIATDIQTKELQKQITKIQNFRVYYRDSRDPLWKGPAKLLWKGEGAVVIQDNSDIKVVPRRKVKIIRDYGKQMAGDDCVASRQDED
Test: Inhibition of recombinant HIV1 integrase 3'-end processing activity by gel-based assay in presence of magnesium
Entry rule: numbers only, all in µM.

O=C(O)/C(O)=C/C(=O)c1cn(Cc2ccc(F)cc2)c2cc(Cl)c(Cl)cc2c1=O ... 11

CCOC(=O)/C(O)=C/C(=O)c1cn(Cc2ccc(F)cc2)c2cc(Cl)c(Cl)cc2c1=O has a reported IC50 of 135

O=C(O)/C(O)=C/C(=O)c1c[nH]c2ccc(Cl)cc2c1=O has a reported IC50 of 166

O=C(O)/C(O)=C/C(=O)c1cn(Cc2ccc(F)cc2)c2cc(N3CCCC3)ccc2c1=O has a reported IC50 of 14

O=C(O)/C(O)=C/C(=O)c1cn(Cc2ccc(F)cc2)c2ccc(Cl)cc2c1=O has a reported IC50 of 6.4

====

Target: Human immunodeficiency virus type 1 integrase (Human immunodeficiency virus 1)
pIC50: −log10 of the molar value.
Tag: yes (1) if measured pIC50 is not below 6, no (0) if it is.

O=C(O)/C(O)=C/C(=O)c1cn(Cc2ccc(F)cc2)c2cc(F)ccc2c1=O ... yes (1)

**Q:** Is it the case that CCOC(=O)/C(O)=C/C(=O)c1cn(Cc2ccc(F)cc2)c2cc(N3CCCC3)ccc2c1=O has pIC50 reaching or exceeding 6?
**A:** no (0)

**Q:** Is it the case that O=C(O)/C(O)=C/C(=O)c1cn(Cc2ccc(F)cc2)c2ccc(Cl)cc2c1=O has pIC50 reaching or exceeding 6?
**A:** yes (1)

**Q:** Is it the case that CCOC(=O)/C(O)=C/C(=O)c1cn(Cc2ccc(F)cc2)c2ccc(Cl)cc2c1=O has pIC50 reaching or exceeding 6?
**A:** no (0)

====

Molecular target: Human immunodeficiency virus type 1 integrase (Human immunodeficiency virus 1)
pIC50: −log10 of the molar value.
Tag: Y if measured pIC50 is not below 5, N if it is.

CCOC(=O)/C(O)=C/C(=O)c1cn(Cc2ccc(F)cc2)c2ccc(F)cc2c1=O ... Y
CCOC(=O)/C(O)=C/C(=O)c1cn(Cc2ccc(F)cc2)c2cc(Cl)c(Cl)cc2c1=O ... Y
CCOC(=O)/C(O)=C/C(=O)c1c[nH]c2ccc(Cl)cc2c1=O ... Y

**Q:** Is it the case that CCOC(=O)/C(O)=C/C(=O)c1cn(Cc2ccc(F)cc2)c2cc(F)ccc2c1=O has pIC50 reaching or exceeding 5?
**A:** Y

**Q:** Is it the case that CCOC(=O)/C(O)=C/C(=O)c1cn(Cc2ccc(F)cc2)c2cc(Cl)ccc2c1=O has pIC50 reaching or exceeding 5?
**A:** N

====

Target: Human immunodeficiency virus type 1 integrase (Human immunodeficiency virus 1, UniProt Q7ZJM1)
Experiment: Inhibition of recombinant HIV1 integrase 3'-end processing activity by gel-based assay in presence of magnesium
Here, each record is paired with measured pIC50 data.
Keep in mind that pIC50 stands for -log10 of concentration in molar terms.

Worked cases, pIC50 given:
O=C(O)/C(O)=C/C(=O)c1cn(Cc2ccc(F)cc2)c2c(Cl)cccc2c1=O ... 4.36
O=C(O)/C(O)=C/C(=O)c1cn(Cc2ccc(F)cc2)c2ccc(F)cc2c1=O ... 5.64
O=C(O)/C(O)=C/C(=O)c1cn(Cc2ccc(F)cc2)c2cc(F)ccc2c1=O ... 5.36
CCOC(=O)/C(O)=C/C(=O)c1cn(Cc2ccc(F)cc2)c2cc(N3CCCC3)ccc2c1=O ... 3.96
CCOC(=O)/C(O)=C/C(=O)c1c[nH]c2ccc(Cl)cc2c1=O ... 3.92

// moving on: another record for pIC50
CCOC(=O)/C(O)=C/C(=O)c1cn(Cc2ccc(F)cc2)c2ccccc2c1=O has a reported pIC50 of 3.87

====

Target: Human immunodeficiency virus type 1 integrase (Human immunodeficiency virus 1, UniProt Q7ZJM1)
Assay: Inhibition of recombinant HIV1 integrase strand transfer activity by gel-based assay in presence of magnesium
Binary call on IC50 with cut-off 3 µM: strictly below means rule met, and equality or higher means rule not met.

Previously resolved entries follow.
CCOC(=O)/C(O)=C/C(=O)c1cn(Cc2ccc(F)cc2)c2c(Cl)cccc2c1=O ... rule not met
CCOC(=O)/C(O)=C/C(=O)c1cn(Cc2ccc(F)cc2)c2ccc(F)cc2c1=O ... rule met
O=C(O)/C(O)=C/C(=O)c1c[nH]c2cc(Cl)ccc2c1=O ... rule not met

Continue with the compound presented below.
**Q:** # check: IC50 < 3 µM for CCOC(=O)/C(O)=C/C(=O)c1cn(Cc2ccc(F)cc2)c2ccccc2c1=O
**A:** rule met

====

Test system: U-937
Assay: Cytotoxicity against human U937 cells after 24 hrs by MTT assay
Details: u-937, 24 h
Here, each record is paired with measured CC50 data.

Worked cases, CC50 given:
CCOC(=O)/C(O)=C/C(=O)c1cn(Cc2ccc(F)cc2)c2c(Cl)cccc2c1=O ... > 200 µM
O=C(O)/C(O)=C/C(=O)c1cn(Cc2ccc(F)cc2)c2cc(N3CCCC3)ccc2c1=O ... > 200 µM

// moving on: another record for CC50
Let me check: O=C(O)/C(O)=C/C(=O)c1cn(Cc2ccc(F)cc2)c2cc(Cl)ccc2c1=O , system U-937, measured CC50 is > 200 µM

====

Target: Human immunodeficiency virus type 1 integrase (Human immunodeficiency virus 1, UniProt Q7ZJM1)
Binary call on IC50 with cut-off 0.03 µM: strictly below means yes, and equality or higher means no.

Previously resolved entries follow.
CCOC(=O)/C(O)=C/C(=O)c1cn(Cc2ccc(F)cc2)c2c(F)cccc2c1=O ... no
O=C(O)/C(O)=C/C(=O)c1cn(Cc2ccc(F)cc2)c2c(F)cccc2c1=O ... yes
CCOC(=O)/C(O)=C/C(=O)c1cn(Cc2ccc(F)cc2)c2c(Cl)cccc2c1=O ... no
O=C(O)/C(O)=C/C(=O)c1cn(Cc2ccc(F)cc2)c2cc(Cl)c(Cl)cc2c1=O ... no

Continue with the molecule presented below.
**Q:** # check: IC50 < 0.03 µM for O=C(O)/C(O)=C/C(=O)c1cn(Cc2ccc(F)cc2)c2cc(N3CCCC3)ccc2c1=O
**A:** yes

====

Molecular target: UniProt:Q7ZJM1
Experiment: Inhibition of recombinant HIV1 integrase strand transfer activity by gel-based assay in presence of magnesium
Here, each record is paired with measured pIC50 data.
Keep in mind that pIC50 stands for -log10 of concentration in molar terms.

O=C(O)/C(O)=C/C(=O)c1c[nH]c2ccc(Cl)cc2c1=O ... 4.25
O=C(O)/C(O)=C/C(=O)c1cn(Cc2ccc(F)cc2)c2ccc(Cl)cc2c1=O ... 6.40
CCOC(=O)/C(O)=C/C(=O)c1cn(Cc2ccc(F)cc2)c2cc(F)ccc2c1=O ... 5.92
CCOC(=O)/C(O)=C/C(=O)c1c[nH]c2ccc(Cl)cc2c1=O ... 5.68
O=C(O)/C(O)=C/C(=O)c1cn(Cc2ccc(F)cc2)c2cc(F)ccc2c1=O ... 7.30
CCOC(=O)/C(O)=C/C(=O)c1cn(Cc2ccc(F)cc2)c2cc(Cl)c(Cl)cc2c1=O ... 5.74

// moving on: another record for pIC50
CCOC(=O)/C(O)=C/C(=O)c1cn(Cc2ccc(F)cc2)c2cc(Cl)ccc2c1=O has a reported pIC50 of 5.44

====

Target: Human immunodeficiency virus type 1 integrase (Human immunodeficiency virus 1, UniProt Q7ZJM1)
propertyMeasured: IC50 (µM)
Entry rule: numbers only, all in µM.

O=C(O)/C(O)=C/C(=O)c1cn(Cc2ccc(F)cc2)c2cc(Cl)ccc2c1=O ... 0.019
O=C(O)/C(O)=C/C(=O)c1cn(Cc2ccc(F)cc2)c2ccccc2c1=O ... 0.04

// moving on: another record for IC50
O=C(O)/C(O)=C/C(=O)c1c[nH]c2cc(Cl)ccc2c1=O has a reported IC50 of 37

====

Here, each record is paired with measured IC50 data.
Target: Human immunodeficiency virus type 1 integrase (Human immunodeficiency virus 1, UniProt Q7ZJM1)
Assay: Inhibition of recombinant HIV1 integrase strand transfer activity by gel-based assay in presence of magnesium
Entry rule: numbers only, all in nM.

O=C(O)/C(O)=C/C(=O)c1cn(Cc2ccc(F)cc2)c2cc(N3CCCC3)ccc2c1=O ... 180
O=C(O)/C(O)=C/C(=O)c1cn(Cc2ccc(F)cc2)c2cc(Cl)c(Cl)cc2c1=O ... 75
CCOC(=O)/C(O)=C/C(=O)c1c[nH]c2cc(Cl)ccc2c1=O ... 224000
O=C(O)/C(O)=C/C(=O)c1cn(Cc2ccc(F)cc2)c2ccccc2c1=O ... 60
O=C(O)/C(O)=C/C(=O)c1cn(Cc2ccc(F)cc2)c2c(Cl)cccc2c1=O ... 510

O=C(O)/C(O)=C/C(=O)c1cn(Cc2ccc(F)cc2)c2c(F)cccc2c1=O has a reported IC50 of 160
